Molecular target: Beta-secretase 1 (Homo sapiens, UniProt P56817)
Sequence (P56817 whole entry): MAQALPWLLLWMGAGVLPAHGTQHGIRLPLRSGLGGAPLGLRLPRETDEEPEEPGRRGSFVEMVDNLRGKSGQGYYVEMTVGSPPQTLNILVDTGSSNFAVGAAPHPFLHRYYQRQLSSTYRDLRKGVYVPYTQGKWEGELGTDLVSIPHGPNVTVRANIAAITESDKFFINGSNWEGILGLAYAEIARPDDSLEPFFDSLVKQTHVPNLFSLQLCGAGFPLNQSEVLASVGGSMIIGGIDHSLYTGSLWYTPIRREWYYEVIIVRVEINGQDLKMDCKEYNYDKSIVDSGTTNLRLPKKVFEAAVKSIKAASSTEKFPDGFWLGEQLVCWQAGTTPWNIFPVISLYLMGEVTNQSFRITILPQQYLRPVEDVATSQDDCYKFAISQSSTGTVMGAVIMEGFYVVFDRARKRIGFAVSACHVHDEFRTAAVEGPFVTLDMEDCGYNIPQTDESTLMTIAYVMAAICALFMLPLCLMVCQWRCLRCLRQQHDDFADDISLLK
Test: Inhibition of BACE1 assessed as amyloid beta secretion by cell based assay
pIC50: −log10 of the molar value.
measuredQuantity: pIC50

Answered examples (5):
Nc1nc2cc(Cl)ccc2n1CCCO
3.11
Nc1nc2cc(Cl)ccc2n1CCCC(=O)NCc1ccccn1
3.37
Nc1nc2cc(Cl)ccc2n1CCCC(=O)NCc1ccccc1
2.85
Nc1nc2cc(Cl)ccc2n1CCCC(=O)NCC1CCCCC1
4.08
CC[C@@H](CC(=O)N[C@H](COC(C)(C)C)C(=O)OC)n1c(N)nc2cc(Cl)ccc21
4.12

a: CC[C@@H](CC(=O)NCc1ccccc1)n1c(N)nc2cc(Cl)ccc21
b: O=C1c2ccccc2C(=O)C1(O)O
Ask: // pick min by pIC50: a , b Your answer should be the label of the entry you select.
Reply: b

// data source = ChEMBL document CHEMBL1221253
